Attribution: patent US6294674A

Target: MMP07 (Homo sapiens)
Construct: made in house; host or cells: Escherichia coli
Sequence (P09237 95-267): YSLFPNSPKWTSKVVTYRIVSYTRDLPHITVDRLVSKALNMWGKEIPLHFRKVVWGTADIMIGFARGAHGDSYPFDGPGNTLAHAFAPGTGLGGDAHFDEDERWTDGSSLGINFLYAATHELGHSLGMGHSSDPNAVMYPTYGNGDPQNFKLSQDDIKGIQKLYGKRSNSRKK
Assay: Thiopeptolide assay, MMP07
Format: biochemical
Conditions: Tables 2, 3, 5, 7; read-out: IC50 MMP-7
Assign IC50 to each entry below.

Task: Quick one: IC50 for O=C(NCCCCC(NS(=O)(=O)c1ccc2oc3ccccc3c2c1)C(=O)O)Nc1ccc(Cl)c(Cl)c1 (stereo not shown) [Example B2] ?
Result: > 100 µM

Task: Would you mind doing O=C(Cc1ccccc1C(F)(F)F)NCCCCC(NS(=O)(=O)c1ccc2oc3ccccc3c2c1)C(=O)O (stereo not shown) [Example A4] as well?
Result: > 100 µM

Task: Next compound: COc1ccc(NC(=O)NCCCCC(NS(=O)(=O)c2ccc3oc4ccccc4c3c2)C(=O)O)cc1 (stereo not shown) [Example B1]
Result: > 100 µM

Task: Same again, this time with O=C(CCC(NS(=O)(=O)c1ccc2oc3ccccc3c2c1)C(=O)O)NCc1cccc2ccccc12 (stereo not shown) [Example F16]
Result: 22.1 µM

Task: One more compound: COc1ccccc1CNC(=O)CCC(NS(=O)(=O)c1ccc2oc3ccccc3c2c1)C(=O)O (stereo not shown) [Example F15]
Result: 36.9 µM

Task: And then O=C(NCCCCC(NS(=O)(=O)c1ccc2oc3ccccc3c2c1)C(=O)O)Nc1ccccc1 (stereo not shown) [Example B10] , what is it?
Result: > 100 µM

Task: Moving on to the next compound: O=C(CCc1ccc(Cl)cc1)NCCCCC(NS(=O)(=O)c1ccc2oc3ccccc3c2c1)C(=O)O (stereo not shown) [Example A28]
Result: > 100 µM

Task: Repeat with CC(O)CNC(=O)CCC(NS(=O)(=O)c1ccc2oc3ccccc3c2c1)C(=O)O (stereo not shown) [Example F3]
Result: > 100 µM

Task: Another compound to look at: O=C(O)C(CCCCNS(=O)(=O)c1ccc(Br)cc1)NS(=O)(=O)c1ccc2oc3ccccc3c2c1 (stereo not shown) [Example D3]
Result: > 100 µM

Task: Input CC(=O)Nc1ccc(S(=O)(=O)NCCCCC(NS(=O)(=O)c2ccc3oc4ccccc4c3c2)C(=O)O)cc1 (stereo not shown) [Example D5]
Result: > 100 µM

Task: Same thing, different compound: CCC(C)CNC(=O)CCC(NS(=O)(=O)c1ccc2oc3ccccc3c2c1)C(=O)O (stereo not shown) [Example F2]
Result: 26.4 µM

Task: Proceed to O=C(CCC(NS(=O)(=O)c1ccc2oc3ccccc3c2c1)C(=O)O)NCCc1cccs1 (stereo not shown) [Example F11]
Result: > 100 µM

Task: // repeat for O=C(CCC(NS(=O)(=O)c1ccc2oc3ccccc3c2c1)C(=O)O)NCc1ccccc1 (stereo not shown) [Example F10] and report
Result: 74.1 µM

Task: How about this compound: O=C(O)C(CCCCNC(=S)Nc1cccnc1)NS(=O)(=O)c1ccc2oc3ccccc3c2c1 (stereo not shown) [Example B3]
Result: 93.5 µM

Task: // same read-out, input: O=C(COc1cccc2ccccc12)NCCCCC(NS(=O)(=O)c1ccc2oc3ccccc3c2c1)C(=O)O (stereo not shown) [Example A14]
Result: > 100 µM

Task: One more compound: O=C(CCC(NS(=O)(=O)c1ccc2oc3ccccc3c2c1)C(=O)O)NCCc1ccncc1 (stereo not shown) [Example F1]
Result: 62 µM

Task: Item: O=C(O)C(CCCCNC(=S)NCc1ccccc1)NS(=O)(=O)c1ccc2oc3ccccc3c2c1 (stereo not shown) [Example B5]
Result: > 100 µM

Task: Try C=CCNC(=O)NCCCCC(NS(=O)(=O)c1ccc2oc3ccccc3c2c1)C(=O)O (stereo not shown) [Example B8] next.
Result: > 100 µM

Task: Try the compound O=C(CC1=CCCC1)NCCCCC(NS(=O)(=O)c1ccc2oc3ccccc3c2c1)C(=O)O (stereo not shown) [Example A12]
Result: 64.9 µM

Task: What do we get for O=C(Cc1ccc2c(c1)OCO2)NCCCCC(NS(=O)(=O)c1ccc2oc3ccccc3c2c1)C(=O)O (stereo not shown) [Example A19] ?
Result: 92.9 µM

Task: Now this one: O=C(COc1ccccc1)NCCCCC(NS(=O)(=O)c1ccc2oc3ccccc3c2c1)C(=O)O (stereo not shown) [Example A8]
Result: > 100 µM

Task: Repeat for the following compound: Cc1ccc(CCC(=O)NCCCCC(NS(=O)(=O)c2ccc3oc4ccccc4c3c2)C(=O)O)cc1 (stereo not shown) [Example A27]
Result: > 100 µM

Task: Next: Cn1cccc1CCNC(=O)CCC(NS(=O)(=O)c1ccc2oc3ccccc3c2c1)C(=O)O (stereo not shown) [Example F14]
Result: 57.6 µM

Task: Then CC(C)(C)c1ccc(OCC(=O)NCCCCC(NS(=O)(=O)c2ccc3oc4ccccc4c3c2)C(=O)O)cc1 (stereo not shown) [Example A10] ?
Result: > 100 µM

Task: Quick one: COc1ccc(S(=O)(=O)NCCCCC(NS(=O)(=O)c2ccc3oc4ccccc4c3c2)C(=O)O)cc1 (stereo not shown) [Example D2]
Result: > 100 µM

Task: Please answer likewise for O=C(CCC(NS(=O)(=O)c1ccc2oc3ccccc3c2c1)C(=O)O)NCCCCc1ccccc1 (stereo not shown) [Example F13]
Result: > 100 µM

Task: Entry O=C(CCC(NS(=O)(=O)c1ccc2oc3ccccc3c2c1)C(=O)O)NCC(c1ccccc1)c1ccccc1 (stereo not shown) [Example F5] please
Result: 40.9 µM

Task: Item: O=C(NCCCCC(NS(=O)(=O)c1ccc2oc3ccccc3c2c1)C(=O)O)NCc1ccccc1 (stereo not shown) [Example B9]
Result: 70.2 µM

Task: Input O=C(O)C(CCCCNC(=S)NC12CC3CC(CC(C3)C1)C2)NS(=O)(=O)c1ccc2oc3ccccc3c2c1 (stereo not shown) [Example B6]
Result: > 100 µM

Task: Also O=C(O)C(CCCCNC(=O)C1(c2ccccc2)CC1)NS(=O)(=O)c1ccc2oc3ccccc3c2c1 (stereo not shown) [Example A38] , if possible.
Result: > 100 µM

Task: Same question for O=C(CCc1ccncc1)NCCCCC(NS(=O)(=O)c1ccc2oc3ccccc3c2c1)C(=O)O (stereo not shown) [Example A22] please.
Result: > 100 µM
